These data points were gathered from ChEMBL document CHEMBL1201862.

# Tested on: COLO 205
# protocol.summary: NCI tumour cell line growth inhibition, 48 h
Active and inactive are the calls of the source. Cut-off read from the data, not from the text of the source: active = GI50 up to about 1.1 µM and inactive = higher.
API: response.call in yes (active), no (inactive)

Reference set (3 entries):
compound: C#CC[N+](C)(CC#C)CC#C
experimental.target: COLO 205
class.name: no
--
compound: O=c1c2ccccc2[nH]c2ccc3c(Cl)n[nH]c3c12
experimental.target: COLO 205
class.name: no
--
compound: O=C(Nc1nccs1)c1c(O)nc2sccn2c1=O
experimental.target: COLO 205
class.name: no

# outcome recorded in this test, key = COc1ccc(/C=C2\CN(C)C/C(=C\c3ccc(OC)c(OC)c3OC)C2=O)c(OC)c1OC
yes

# outcome recorded in this test, key = C[C@]12CCC(=O)C=C1C[C@@H](O)[C@@H]1[C@@H]2CC[C@@]2(C)[C@H]1CC[C@]2(C)O
no

# outcome recorded in this test, key = CCC(CCCC[C@@H]1CC[C@H]2CC(=O)C[C@@H]12)OC (some centres undefined)
no

# outcome recorded in this test, key = O=C(Cc1cc(=O)oc2cc(O)ccc12)N/N=C/c1ccc(N(CCCl)CCCl)cc1
no

# outcome recorded in this test, key = O/N=C1/C(=C/c2ccc(Br)cc2)CCCC1C(NO)c1ccc(Br)cc1 (centres undefined)
no

# outcome recorded in this test, key = Cc1cc(NS(=O)(=O)c2ccc(Nc3c4ccccc4nc4c(C(=O)NCCN(C)C)ccc(Cl)c34)cc2)no1
no

# outcome recorded in this test, key = COc1ccccc1CC1(O)OC(=O)c2ccccc21 (centres undefined)
no

====

# System: HOP-62
# protocol.summary: NCI tumour cell line growth inhibition, 48 h
Activity calls are given as the source filed them. No stated cut-off is given here; in the data, active = GI50 up to about 1.1 µM and inactive = higher. Starred links: 1 amine or outer side, 2 acyl side, 3 side chain; linkers in the order of their positions; H or OH if unused. Non-standard residues stand in square brackets, D forms with d. Residues, ends and D or L forms follow the SMILES beside them. X41 = CSCCCC(N[*:1])C(=O)[*:2]
GI50 values, listed per item

// solved cases for GI50 follow
molecule: Oc1c(CN2CCN(c3ccccc3)CC2)cc(Br)c2cccnc12
GI50: 1.33 µM (inactive)
--
molecule: Cc1oc2nc1C(=O)NCc1nc(cs1)C(=O)N[C@H](C(C)C)c1nc(cs1)C(=O)N[C@H]2C
GI50: 85.1 µM (inactive)

The value of GI50 measured for the molecule CSCCCC(NC(=O)CNC(=O)C1CCCN1C(=O)C(Cc1ccc(O)cc1)NC(=O)C(Cc1ccccc1)NC(=O)C(CCCNC(=N)N)NC(=O)C(CC(=O)O)NC(=O)C1CCCN1C(=O)C(CC(=O)O)NC(=O)C1CCCN1C(=O)C1CCCN1C(=O)CN)C(N)=O (stereo not drawn) (H-GPPDPDRFYPG[X41]-NH2; configuration not given here) turned out to be > 50 µM (inactive)

====

# Test system: NCI/ADR-RES
# protocol.summary: NCI tumour cell line growth inhibition, 48 h
Active and inactive are the calls of the source. No stated cut-off is given here; in the data, active = GI50 up to about 1.1 µM and inactive = higher.
API: response.call in T = active, F = inactive

Reference set (5 entries):
compound: CCCCCC(C)C[C@H]1CO[C@H](c2ccc[nH]2)N[C@H]1C(=O)OC (some centres undefined)
class.name: F
--
compound: Clc1ccccc1C(Nc1cnccn1)Nc1cnccn1
class.name: F
--
compound: CCOC(=S)SC/C(=N\OC(C)(C)OC)c1ccccc1
class.name: F
--
compound: Clc1ccc(/C=C/c2nc(-c3ccccc3)cn3c2nc2ccccc23)cc1Cl
class.name: F
--
compound: O=C1CCCCC/C1=C\c1cccc([N+](=O)[O-])c1
class.name: F

# outcome recorded in this test, key = CC(=O)OC1CC[C@]2(C)C3CC[C@@]4(C)C(CCC4[C@H](C)CCCC(C)C)[C@@H]3CCC2(Br)C1 (some centres undefined)
F

# outcome recorded in this test, key = COc1ccc(/C=C2\N=C(N3CCOCC3)NC2=O)cc1
F

# outcome recorded in this test, key = O=C(Cc1ccccc1)NNc1nc(NNC(=O)c2ccncc2)nc(Nc2ccc(Cl)cc2)n1
F

# outcome recorded in this test, key = Oc1c(CN2CCN(c3ccccc3)CC2)cc(Br)c2cccnc12
T

# outcome recorded in this test, key = CNC(=O)OCC1=C(COC(=O)NC)C(C)N(c2ccc(OC)cc2)C1 (centres undefined)
F
